# assay summary: Neurotoxicity against ip dosed albino mouse assessed as inability of animal to maintain equilibrium on rod for 1 min after 4 hrs by rotarod test
# applied conditions: in vivo, read-out: LD50
Listing of recorded TD50 at 4 h by entry.
measurement name: TD50 at 4 h

INSERT INTO measurements (smiles_representation, measurement_name, result) VALUES
  ('O=C1NN(C(=O)c2ccc(Cl)cc2)C(c2ccccc2)=N/C1=C/c1ccccc1', 'TD50 at 4 h', '300 mg/kg'),
  ('COc1ccc(/C=C2/N=C(c3ccccc3)N(C(=O)c3ccc(C)cc3)NC2=O)cc1', 'TD50 at 4 h', '300 mg/kg'),
  ('O=C1NN(C(=O)c2ccccc2Cl)C(c2ccccc2)=N/C1=C/c1ccccc1Cl', 'TD50 at 4 h', '300 mg/kg'),
  ('Cc1ccc(/C=C2/N=C(c3ccccc3)N(C(=O)Cc3ccc(Cl)cc3)NC2=O)cc1', 'TD50 at 4 h', '300 mg/kg'),
  ('COc1ccc(/C=C2/N=C(c3ccccc3)N(C(=O)c3ccc(Cl)cc3)NC2=O)cc1', 'TD50 at 4 h', '300 mg/kg');
